# EXPERIMENTAL SYSTEM: Fatty-acid amide hydrolase 1 (Rattus norvegicus, UniProt P97612)
# Sequence (P97612 whole entry): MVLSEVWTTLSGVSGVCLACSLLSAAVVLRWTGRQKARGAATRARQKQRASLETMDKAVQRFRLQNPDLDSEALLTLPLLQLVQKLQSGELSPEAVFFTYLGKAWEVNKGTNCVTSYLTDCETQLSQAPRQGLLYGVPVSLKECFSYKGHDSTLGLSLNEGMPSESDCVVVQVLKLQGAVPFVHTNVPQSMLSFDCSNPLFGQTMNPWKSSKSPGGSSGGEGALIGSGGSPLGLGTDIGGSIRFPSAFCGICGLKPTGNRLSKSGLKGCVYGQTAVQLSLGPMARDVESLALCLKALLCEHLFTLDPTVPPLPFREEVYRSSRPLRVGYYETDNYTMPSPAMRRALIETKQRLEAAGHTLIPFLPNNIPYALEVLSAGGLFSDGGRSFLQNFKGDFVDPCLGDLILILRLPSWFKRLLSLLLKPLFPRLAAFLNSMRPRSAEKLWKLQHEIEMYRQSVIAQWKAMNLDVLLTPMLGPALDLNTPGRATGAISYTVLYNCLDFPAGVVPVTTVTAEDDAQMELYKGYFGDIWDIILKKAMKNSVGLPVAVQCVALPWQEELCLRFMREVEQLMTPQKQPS
# METHOD DESCRIPTION: Inhibition of rat FAAH assessed as kinact/Ki ratio incubated for 15 min in presence of glutamate dehydrogenase by 384-well format microplate reader assay
RECORDED ENDPOINT: IC50

>>> measurement("O=C(Nc1cccnn1)N1CCC(=Cc2cccc(Oc3ccc(C(F)(F)F)cn3)c2)CC1")
"26.7 nM"

These measurements were taken from ChEMBL document CHEMBL5653606.
